- Test system: ryegrass, Italian (Italian ryegrass, Lolium multiflorum)
- Protocol summary: Test C pre-/postemergence greenhouse herbicide test
- Type: in vivo
- Condition parameters: Lolium multiflorum, post-emergence; Ryegrass, Italian; Postemergence; 125 g ai/ha; read-out: Plant response rating
Task for the reader: assign each of the following molecules its reported pest or weed control at 125 g/ha.

Note to self: pest or weed control at 125 g/ha recorded for COc1cc(=O)n(-c2ccc(F)cc2)nc1Cc1ccnc(C(F)(F)F)c1 [Compound 17] was 5%

Note to self: pest or weed control at 125 g/ha recorded for Cc1cc(Oc2ccnc(C(F)(F)F)c2)nn(-c2ccc(C(F)(F)F)cc2)c1=O [Compound 6] was 15%

Note to self: pest or weed control at 125 g/ha recorded for COc1cc(=O)n(-c2ccc(C(F)(F)F)cc2)nc1Cc1ccnc(C(F)(F)F)c1 [Compound 16] was 15%

Note to self: pest or weed control at 125 g/ha recorded for Cc1cc(=O)n(-c2ccc(C(F)(F)F)cc2)nc1Cc1ccnc(C(F)(F)F)c1 [Compound 2] was 5%

Note to self: pest or weed control at 125 g/ha recorded for Cc1cc(=O)n(-c2ccc(F)cc2)nc1Oc1ccnc(C(F)(F)F)c1 [Compound 14] was 10%

Note to self: pest or weed control at 125 g/ha recorded for Cc1cc(=O)n(-c2ccc(F)cc2)nc1Cc1ccnc(C(F)(F)F)c1 [Compound 1] was 5%
